molecular target: aphid peptidyl-dipeptidase A (Aphis gossypii); test: Inhibition of aphid peptidyl-dipeptidase A activity, in vitro, substrate Abz-Gly-p-nitro-Phe-Pro-OH; format: biochemical, cotton aphid (Aphis gossypii); details: test compound in DMSO, final concentration 10 μM; relative to DMSO control; read-out: Activity of inhibiting peptidyl-dipeptidase A activity (inhibition degree (%) at 10 μM addition)
Sequence (A0A2K9Y4D7 entry or part of it): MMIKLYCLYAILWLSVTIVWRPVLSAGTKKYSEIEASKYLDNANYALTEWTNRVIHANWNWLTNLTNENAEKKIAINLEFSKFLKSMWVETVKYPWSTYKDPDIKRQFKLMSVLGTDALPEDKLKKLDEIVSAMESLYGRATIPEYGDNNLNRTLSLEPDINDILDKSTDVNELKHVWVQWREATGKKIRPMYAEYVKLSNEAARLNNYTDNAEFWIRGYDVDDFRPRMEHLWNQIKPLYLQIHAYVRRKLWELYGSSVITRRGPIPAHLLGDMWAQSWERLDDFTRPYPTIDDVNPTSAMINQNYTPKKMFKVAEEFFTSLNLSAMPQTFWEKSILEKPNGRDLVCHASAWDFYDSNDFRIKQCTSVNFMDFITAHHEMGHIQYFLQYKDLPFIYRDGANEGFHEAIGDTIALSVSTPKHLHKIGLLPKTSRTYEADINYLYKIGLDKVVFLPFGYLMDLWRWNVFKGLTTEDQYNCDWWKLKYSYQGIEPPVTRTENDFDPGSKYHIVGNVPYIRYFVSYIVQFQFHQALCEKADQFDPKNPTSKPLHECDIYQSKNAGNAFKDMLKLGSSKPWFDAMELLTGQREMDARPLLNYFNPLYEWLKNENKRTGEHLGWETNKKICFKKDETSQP
If the reported inhibition at 10 µM equals or exceeds 80%, assign rule met. If not, assign rule not met.

smiles structure | qualitative label
C[C@H](CS)C(=O)N1CCC[C@H]1C(=O)O | rule met
CCOC(=O)[C@H](CCc1ccccc1)N[C@@H](C)C(=O)N1[C@H](C(=O)O)C[C@@H]2CCC[C@@H]21 | rule not met
CCOC(=O)[C@H](CCc1ccccc1)N[C@@H](C)C(=O)N1CCC[C@H]1C(=O)O | rule met

Next up:
stdin: Reported inhibition at 10 µM reaches at least 80% for `CCOC(=O)[C@H](CCc1ccccc1)N[C@H]1CCc2ccccc2N(CC(=O)O)C1=O` ?
stdout: rule not met

---

molecular target: UniProtKB A0A2K9Y4D7; assay: Inhibition of aphid peptidyl-dipeptidase A activity, in vitro, substrate Abz-Gly-p-nitro-Phe-Pro-OH; type: biochemical, cotton aphid (Aphis gossypii); details: concentrations 100 to 0.03 μM; calculated with XL fit; read-out: Activity of inhibiting peptidyl-dipeptidase A activity IC50, (μM))
assay endpoint: IC50 (µM)
Report only the number, with the unit µM understood.

stdin: Supply recorded IC50 for CCOC(=O)[C@H](CCc1ccccc1)N[C@H]1CCc2ccccc2N(CC(=O)O)C1=O [benazepril] here.
stdout: 15.9
